B1: tRNA (parent)
chain: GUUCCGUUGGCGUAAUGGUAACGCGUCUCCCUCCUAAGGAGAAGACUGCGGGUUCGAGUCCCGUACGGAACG

- Variants of: B1
- test_protocol: yeast fitness relative to wild type (ratio to wild type); higher = fitter; tRNA-Arg(CCU), competitive growth, 37 C, YPD
This sample holds only a part of the variants without activity.
measured_parameter: yeast fitness

[[record]]
mutation_code = "A21U C62U C66G"
measured_parameter = "yeast fitness"
observed_measurement = "≤ 0.5"

[[record]]
mutation_code = "U16G U53C C61G"
measured_parameter = "yeast fitness"
observed_measurement = "≤ 0.5"

[[record]]
mutation_code = "U3C U13A C31U G41A A57C A70U"
measured_parameter = "yeast fitness"
observed_measurement = "≤ 0.5"

[[record]]
mutation_code = "C5U U13A A15G A20G C22G C46G G51A"
measured_parameter = "yeast fitness"
observed_measurement = "≤ 0.5"

[[record]]
mutation_code = "C31U C61G C66G"
measured_parameter = "yeast fitness"
observed_measurement = "≤ 0.5"

[[record]]
mutation_code = "C29G C30U A36C A40G"
measured_parameter = "yeast fitness"
observed_measurement = "≤ 0.5"

[[record]]
mutation_code = "U2C G17C G23C G25C U35A A42U C66U"
measured_parameter = "yeast fitness"
observed_measurement = "≤ 0.5"


// moving on: another record for yeast fitness
## Task Any idea what its yeast fitness is? The variant is U3A C4G U8A C24G U53C G58A
## Result ≤ 0.5

Measured values drawn from the RNAGym collection of RNA variant scans (doi:10.1126/science.aae0568) for this set.
